All values here come from the NIST ThermoML archive (doi:10.1016/j.fluid.2019.01.028).

- measurement-description: activity coefficient (dimensionless); of the first substance listed, at infinite dilution; xn = mol fraction of the nth substance listed
- run-parameters: 333 K; Liquid; Chromatography; x1 = 0
metric: activity coefficient

Worked cases, answers included:
compound: CO [methanol] + CCCC[n+]1ccn(C)c1.O=S(=O)([N-]S(=O)(=O)C(F)(F)F)C(F)(F)F
activity coefficient: 1.09
--
compound: Cc1ccc(C)o1 [2,5-dimethylfuran] + CCCCn1cc[n+](C)c1.[Cl-]
activity coefficient: 9.61

The reported activity coefficient of the compound c1ccoc1 [furan] + CCCC[n+]1ccn(C)c1.O=S(=O)([N-]S(=O)(=O)C(F)(F)F)C(F)(F)F was 0.711

----------
- measurement-description: activity coefficient (dimensionless); of the first substance listed, at infinite dilution; xn = mol fraction of the nth substance listed
- run-parameters: 323 K; Liquid; Chromatography; x1 = 0
metric: activity coefficient
Please respond with just the number, no unit label.

Here's what some known entries look like.
compound: Cc1ccc(C)o1 [2,5-dimethylfuran] + CCCC[n+]1ccn(C)c1.O=S(=O)([N-]S(=O)(=O)C(F)(F)F)C(F)(F)F
metric: activity coefficient
value-observed: 1.85
//
compound: CCCO [propan-1-ol] + CCCC[n+]1ccn(C)c1.O=S(=O)([N-]S(=O)(=O)C(F)(F)F)C(F)(F)F
metric: activity coefficient
value-observed: 1.77
//
compound: CCc1ccccc1 [ethylbenzene] + CCCC[n+]1ccn(C)c1.O=S(=O)([N-]S(=O)(=O)C(F)(F)F)C(F)(F)F
metric: activity coefficient
value-observed: 2.01

// activity coefficient lookup, compound = CCO [ethanol] + CCCCn1cc[n+](C)c1.[Cl-] , result: 0.208

----------
- measurement-description: activity coefficient (dimensionless); of the first substance listed, at infinite dilution; xn = mol fraction of the nth substance listed
- run-parameters: 333 K; Liquid; Chromatography; x1 = 0
The entries below are paired with their reported activity coefficient.

The cases that follow already have their activity coefficient on record.
compound: Cc1ccccc1 [toluene] + CCCCn1cc[n+](C)c1.[Cl-]
metric: activity coefficient
value-observed: 7.23
//
compound: CCc1ccco1 [2-ethylfuran] + CCCC[n+]1ccn(C)c1.O=S(=O)([N-]S(=O)(=O)C(F)(F)F)C(F)(F)F
metric: activity coefficient
value-observed: 1.51
//
compound: Cc1ccco1 [2-methylfuran] + CCCCn1cc[n+](C)c1.[Cl-]
metric: activity coefficient
value-observed: 3.84

Lab book: activity coefficient of CCc1ccco1 [2-ethylfuran] + CCCCn1cc[n+](C)c1.[Cl-] noted as 6.12

Field activity coefficient (entry Cc1ccccc1 [toluene] + CCCC[n+]1ccn(C)c1.O=S(=O)([N-]S(=O)(=O)C(F)(F)F)C(F)(F)F ) reads 1.37

So for CO [methanol] + CCCCn1cc[n+](C)c1.[Cl-] , the logged activity coefficient turned out to be 0.104

Query Cc1ccc(C)o1 [2,5-dimethylfuran] + CCCC[n+]1ccn(C)c1.O=S(=O)([N-]S(=O)(=O)C(F)(F)F)C(F)(F)F yields activity coefficient of 1.86

activity coefficient recorded for this compound, CCc1ccccc1 [ethylbenzene] + CCCC[n+]1ccn(C)c1.O=S(=O)([N-]S(=O)(=O)C(F)(F)F)C(F)(F)F , is 2.01

----------
- measurement-description: activity coefficient (dimensionless); of the first substance listed, at infinite dilution; xn = mol fraction of the nth substance listed
- run-parameters: 343 K; Liquid; Chromatography; x1 = 0
The compounds listed here are annotated with their activity coefficient.
Give your answer as a number; write no unit.

compound: CCO [ethanol] + CCCCn1cc[n+](C)c1.[Cl-]
activity coefficient: 0.22
//
compound: c1ccccc1 [benzene] + CCCCn1cc[n+](C)c1.[Cl-]
activity coefficient: 4.15

activity coefficient measured on c1ccoc1 [furan] + CCCCn1cc[n+](C)c1.[Cl-] = 1.66

# activity coefficient (compound: CCc1ccccc1 [ethylbenzene] + CCCC[n+]1ccn(C)c1.O=S(=O)([N-]S(=O)(=O)C(F)(F)F)C(F)(F)F ) is 2.05

Reported activity coefficient ( CCc1ccco1 [2-ethylfuran] + CCCCn1cc[n+](C)c1.[Cl-] ) = 6.23
